measured target: PKCbeta2 (Homo sapiens, UniProt P05771)
Sequence (P05771 1-673 isoform P05771-2): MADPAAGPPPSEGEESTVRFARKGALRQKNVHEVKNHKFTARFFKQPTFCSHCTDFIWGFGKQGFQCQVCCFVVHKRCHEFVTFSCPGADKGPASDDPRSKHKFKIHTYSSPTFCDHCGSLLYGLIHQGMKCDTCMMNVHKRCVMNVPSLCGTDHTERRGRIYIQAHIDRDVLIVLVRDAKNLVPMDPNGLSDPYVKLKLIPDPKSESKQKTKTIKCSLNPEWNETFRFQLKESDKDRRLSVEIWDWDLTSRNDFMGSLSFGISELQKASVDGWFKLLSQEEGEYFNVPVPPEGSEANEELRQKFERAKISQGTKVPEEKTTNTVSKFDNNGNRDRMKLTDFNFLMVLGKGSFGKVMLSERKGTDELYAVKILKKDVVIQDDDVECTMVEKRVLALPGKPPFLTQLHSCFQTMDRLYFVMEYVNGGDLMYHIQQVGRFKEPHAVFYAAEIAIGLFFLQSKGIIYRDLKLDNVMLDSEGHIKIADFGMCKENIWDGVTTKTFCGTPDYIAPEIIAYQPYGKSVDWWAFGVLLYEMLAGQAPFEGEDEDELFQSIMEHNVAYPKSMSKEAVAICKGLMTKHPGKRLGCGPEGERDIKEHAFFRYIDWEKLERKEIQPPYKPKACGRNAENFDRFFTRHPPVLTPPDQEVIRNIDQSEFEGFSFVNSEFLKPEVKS
pIC50: −log10 of the molar value.
recorded endpoint: pIC50

Find the measured pIC50: item O=C(NCCCN1CCCC1)c1ccc(/C=C2\Sc3ccccc3N(Cc3ccccc3F)C2=O)cc1 , target or system PKCbeta2 (Homo sapiens, UniProt P05771).
< 4.70

* * *

Let's look at some compounds and their measured IC50.
measured target: PKCε (h) (Homo sapiens, UniProt Q02156)
Sequence (Q02156 1-737): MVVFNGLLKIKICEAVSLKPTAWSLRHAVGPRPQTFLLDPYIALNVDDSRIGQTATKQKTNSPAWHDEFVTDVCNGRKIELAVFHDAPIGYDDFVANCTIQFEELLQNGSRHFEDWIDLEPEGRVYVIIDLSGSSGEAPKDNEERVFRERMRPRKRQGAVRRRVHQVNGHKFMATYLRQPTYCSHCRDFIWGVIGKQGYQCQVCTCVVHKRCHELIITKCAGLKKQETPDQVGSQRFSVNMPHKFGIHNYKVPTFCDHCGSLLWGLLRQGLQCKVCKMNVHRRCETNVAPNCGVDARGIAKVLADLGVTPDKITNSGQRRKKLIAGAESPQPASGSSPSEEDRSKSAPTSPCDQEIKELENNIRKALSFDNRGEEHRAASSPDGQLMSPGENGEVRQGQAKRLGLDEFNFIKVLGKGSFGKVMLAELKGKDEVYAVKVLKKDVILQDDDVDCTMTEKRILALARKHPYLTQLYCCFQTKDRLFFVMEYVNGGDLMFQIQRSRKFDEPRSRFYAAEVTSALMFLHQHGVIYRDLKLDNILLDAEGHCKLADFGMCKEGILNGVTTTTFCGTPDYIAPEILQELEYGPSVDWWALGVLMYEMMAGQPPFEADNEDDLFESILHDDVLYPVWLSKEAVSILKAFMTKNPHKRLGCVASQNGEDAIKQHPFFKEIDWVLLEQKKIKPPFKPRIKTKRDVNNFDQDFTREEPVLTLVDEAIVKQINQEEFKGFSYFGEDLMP
protocol summary: In vitro PKCε kinase assay (radiometric, [γ-33P-ATP], HotSpot)
condition summary: recombinant human PKCε, 10 μM ATP; read-out: IC50 in antagonizing the PKCε

Consider the following illustrative entries.
O=C(NCN1CCC2CCCCC2C1)c1ccc(/C=C2\Oc3ccccc3N(Cc3ccccc3F)C2=O)cc1 (mixture of isomers)    0.01 to 1 µM
Cc1oc(-c2ccc(Cl)cc2)nc1CN1CCC(C(=O)NCCCN2CCOCC2)CC1    0.01 to 1 µM
CN(CCCN1CCOCC1)C(=O)c1ccc(C=C2Oc3ccccc3N(Cc3ccccc3F)C2=O)cc1 (mixture of isomers)    0.01 to 1 µM
Cc1oc(-c2ccc(Cl)cc2)nc1CN1CCC(C(=O)NCCCN2CCC(Cc3ccccc3)CC2)CC1    0.01 to 1 µM
O=C(NCCCN1CCCC1)c1ccc(/C=C2\Oc3ccccc3N(Cc3ccccc3F)C2=O)cc1 [Compound 483, hydrate]    0.01 to 1 µM
Cc1oc(-c2ccc3c(c2)OCO3)nc1CN1CCC(C(=O)NCCCN2CCCCCC2)CC1    0.01 to 1 µM

Could you now consider this next compound?
Which value of IC50 has been reported for CC(=C1Oc2ccccc2N(Cc2ccc(F)cc2)C1=O)c1ccc(C(=O)NCCCN2CCOCC2)cc1 (mixture of isomers) in the records?
0.01 to 1 µM

* * *

measured target: RSK1 (Homo sapiens)
Construct: purchased Reaction Biology Corp
Sequence (Q15418 whole entry): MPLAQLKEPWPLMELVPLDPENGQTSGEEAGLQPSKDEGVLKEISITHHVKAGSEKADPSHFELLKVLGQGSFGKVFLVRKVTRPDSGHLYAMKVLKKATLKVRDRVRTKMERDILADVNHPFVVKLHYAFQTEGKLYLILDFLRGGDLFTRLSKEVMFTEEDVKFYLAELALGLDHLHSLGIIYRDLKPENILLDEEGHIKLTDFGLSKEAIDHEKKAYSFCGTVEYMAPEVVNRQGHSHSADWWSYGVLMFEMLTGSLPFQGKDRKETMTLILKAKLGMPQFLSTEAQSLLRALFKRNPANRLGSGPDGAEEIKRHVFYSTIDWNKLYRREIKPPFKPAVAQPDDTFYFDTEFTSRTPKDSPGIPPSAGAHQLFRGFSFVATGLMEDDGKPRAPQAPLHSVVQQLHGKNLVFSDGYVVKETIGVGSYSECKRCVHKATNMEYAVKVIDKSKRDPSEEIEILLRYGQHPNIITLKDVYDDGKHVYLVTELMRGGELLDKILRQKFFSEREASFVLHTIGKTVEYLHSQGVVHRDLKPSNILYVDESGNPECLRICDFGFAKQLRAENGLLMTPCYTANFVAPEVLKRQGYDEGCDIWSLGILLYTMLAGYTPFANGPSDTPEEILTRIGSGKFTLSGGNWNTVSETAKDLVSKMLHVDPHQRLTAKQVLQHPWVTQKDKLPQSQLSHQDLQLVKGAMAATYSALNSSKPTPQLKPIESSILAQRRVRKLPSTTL
protocol summary: Kinase profiling
Format: biochemical
pIC50: −log10 of the molar value.
recorded endpoint: pIC50

Find the measured pIC50: item O=C(NCCCN1CCCC1)c1ccc(/C=C2\Sc3ccccc3N(Cc3ccccc3F)C2=O)cc1 [Compound 481] , target or system RSK1 (Homo sapiens).
< 4.70

* * *

Sequence of the target: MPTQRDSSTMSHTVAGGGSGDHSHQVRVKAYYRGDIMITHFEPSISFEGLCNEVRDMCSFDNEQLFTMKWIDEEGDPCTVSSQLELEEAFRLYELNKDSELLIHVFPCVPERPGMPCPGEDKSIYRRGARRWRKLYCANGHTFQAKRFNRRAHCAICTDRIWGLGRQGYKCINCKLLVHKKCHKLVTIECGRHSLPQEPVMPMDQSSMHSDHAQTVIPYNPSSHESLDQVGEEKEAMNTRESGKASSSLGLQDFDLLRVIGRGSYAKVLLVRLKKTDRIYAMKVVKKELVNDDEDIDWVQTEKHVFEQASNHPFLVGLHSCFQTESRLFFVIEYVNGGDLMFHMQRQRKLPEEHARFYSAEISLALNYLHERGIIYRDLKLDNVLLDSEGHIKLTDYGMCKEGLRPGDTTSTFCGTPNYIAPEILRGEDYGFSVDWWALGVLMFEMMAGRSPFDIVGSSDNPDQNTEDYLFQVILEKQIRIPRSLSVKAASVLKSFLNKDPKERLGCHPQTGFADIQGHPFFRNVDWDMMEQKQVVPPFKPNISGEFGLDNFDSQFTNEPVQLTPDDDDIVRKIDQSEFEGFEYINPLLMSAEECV
pIC50: −log10 of the molar value.
recorded endpoint: pIC50

Which value of pIC50 has been reported for O=C(NCCCN1CCCC1)c1ccc(/C=C2\Sc3ccccc3N(Cc3ccccc3F)C2=O)cc1 in the records?
< 4.70

* * *

measured target: CDK1/cyclinB (Homo sapiens)
Sequence (P06493 whole entry): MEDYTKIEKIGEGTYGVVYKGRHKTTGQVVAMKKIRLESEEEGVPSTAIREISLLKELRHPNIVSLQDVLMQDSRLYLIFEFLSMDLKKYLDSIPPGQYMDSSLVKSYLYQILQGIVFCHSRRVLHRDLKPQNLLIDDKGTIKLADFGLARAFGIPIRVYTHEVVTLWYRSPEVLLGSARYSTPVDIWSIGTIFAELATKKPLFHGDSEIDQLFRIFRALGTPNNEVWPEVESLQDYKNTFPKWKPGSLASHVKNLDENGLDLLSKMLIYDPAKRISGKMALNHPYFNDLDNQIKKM
Sequence (P14635 whole entry partner): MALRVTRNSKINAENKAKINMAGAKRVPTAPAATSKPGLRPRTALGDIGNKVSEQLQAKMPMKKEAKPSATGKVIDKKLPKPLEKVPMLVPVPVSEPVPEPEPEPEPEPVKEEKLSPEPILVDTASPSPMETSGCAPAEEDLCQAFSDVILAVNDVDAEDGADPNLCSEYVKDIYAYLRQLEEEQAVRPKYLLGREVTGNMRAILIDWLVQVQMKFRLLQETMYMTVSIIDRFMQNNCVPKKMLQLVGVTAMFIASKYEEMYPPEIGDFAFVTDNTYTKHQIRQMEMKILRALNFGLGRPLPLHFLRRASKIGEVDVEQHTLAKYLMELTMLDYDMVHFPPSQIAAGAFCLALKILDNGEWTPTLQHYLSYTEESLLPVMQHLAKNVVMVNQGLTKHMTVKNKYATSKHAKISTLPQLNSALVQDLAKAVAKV
protocol summary: Kinase profiling
recorded endpoint: IC50

Which value of IC50 has been reported for O=C(NCCCN1CCCC1)c1ccc(/C=C2\Sc3ccccc3N(Cc3ccccc3F)C2=O)cc1 in the records?
> 20 µM

* * *

measured target: UniProtKB P31749
Sequence (P31749 whole entry): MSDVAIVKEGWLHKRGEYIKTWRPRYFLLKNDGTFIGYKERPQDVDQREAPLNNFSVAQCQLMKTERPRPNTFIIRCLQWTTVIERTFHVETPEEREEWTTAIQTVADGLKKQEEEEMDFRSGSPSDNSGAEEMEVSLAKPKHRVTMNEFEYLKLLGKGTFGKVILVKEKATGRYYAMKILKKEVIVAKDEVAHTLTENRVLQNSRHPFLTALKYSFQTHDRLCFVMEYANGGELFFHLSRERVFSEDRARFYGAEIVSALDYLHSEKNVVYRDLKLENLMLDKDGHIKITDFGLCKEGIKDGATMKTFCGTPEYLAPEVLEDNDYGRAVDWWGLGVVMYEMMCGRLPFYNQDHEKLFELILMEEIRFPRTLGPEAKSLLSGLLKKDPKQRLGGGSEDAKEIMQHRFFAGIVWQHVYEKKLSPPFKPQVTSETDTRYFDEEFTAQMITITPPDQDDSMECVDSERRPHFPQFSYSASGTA
recorded endpoint: IC50

Which value of IC50 has been reported for O=C(NCCCN1CCCC1)c1ccc(/C=C2\Sc3ccccc3N(Cc3ccccc3F)C2=O)cc1 [Compound 481] in the records?
> 20 µM

* * *

measured target: FYN (Homo sapiens, UniProt P06241)
Sequence (P06241 whole entry): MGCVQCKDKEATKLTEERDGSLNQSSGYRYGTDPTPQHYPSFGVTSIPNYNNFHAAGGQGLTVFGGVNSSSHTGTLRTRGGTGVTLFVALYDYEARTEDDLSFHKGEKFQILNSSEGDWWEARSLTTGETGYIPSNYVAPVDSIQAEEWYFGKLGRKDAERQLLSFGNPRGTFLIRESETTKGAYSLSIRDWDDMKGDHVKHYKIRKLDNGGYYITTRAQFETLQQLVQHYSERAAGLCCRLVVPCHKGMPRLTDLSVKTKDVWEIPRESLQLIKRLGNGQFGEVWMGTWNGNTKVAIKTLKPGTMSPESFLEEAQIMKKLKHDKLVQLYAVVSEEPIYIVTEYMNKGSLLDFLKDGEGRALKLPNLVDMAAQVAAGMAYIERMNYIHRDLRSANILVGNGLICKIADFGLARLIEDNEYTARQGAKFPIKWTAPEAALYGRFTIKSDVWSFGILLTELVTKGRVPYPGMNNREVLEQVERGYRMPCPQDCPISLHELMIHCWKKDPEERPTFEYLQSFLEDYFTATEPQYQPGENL
recorded endpoint: IC50

Which value of IC50 has been reported for O=C(NCCCN1CCCC1)c1ccc(/C=C2\Sc3ccccc3N(Cc3ccccc3F)C2=O)cc1 in the records?
> 20 µM

* * *

measured target: PKCmu (Homo sapiens)
Sequence (Q15139 1-912): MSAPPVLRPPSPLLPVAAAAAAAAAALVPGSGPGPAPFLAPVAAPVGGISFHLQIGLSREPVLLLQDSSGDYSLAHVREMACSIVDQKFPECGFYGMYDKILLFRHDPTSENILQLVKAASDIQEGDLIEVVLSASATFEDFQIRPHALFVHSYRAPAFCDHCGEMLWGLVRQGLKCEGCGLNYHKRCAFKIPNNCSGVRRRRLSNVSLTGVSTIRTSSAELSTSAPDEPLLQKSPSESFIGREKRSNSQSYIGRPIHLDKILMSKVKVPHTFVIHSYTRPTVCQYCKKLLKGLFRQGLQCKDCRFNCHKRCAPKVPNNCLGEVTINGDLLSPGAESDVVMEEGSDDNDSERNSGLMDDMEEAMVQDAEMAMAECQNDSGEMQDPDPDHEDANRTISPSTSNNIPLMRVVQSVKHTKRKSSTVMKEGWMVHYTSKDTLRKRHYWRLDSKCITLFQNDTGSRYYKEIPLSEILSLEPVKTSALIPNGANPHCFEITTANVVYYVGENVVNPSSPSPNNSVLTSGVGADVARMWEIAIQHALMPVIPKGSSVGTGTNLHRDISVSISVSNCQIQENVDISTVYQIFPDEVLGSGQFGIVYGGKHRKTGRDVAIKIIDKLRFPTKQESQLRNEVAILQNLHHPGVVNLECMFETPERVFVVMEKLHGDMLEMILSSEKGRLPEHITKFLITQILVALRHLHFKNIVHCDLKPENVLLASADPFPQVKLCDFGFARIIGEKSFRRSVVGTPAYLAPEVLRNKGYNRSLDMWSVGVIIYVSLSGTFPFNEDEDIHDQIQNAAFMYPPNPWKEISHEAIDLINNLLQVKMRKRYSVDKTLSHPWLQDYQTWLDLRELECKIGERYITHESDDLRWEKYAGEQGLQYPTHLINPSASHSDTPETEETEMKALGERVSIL
recorded endpoint: IC50

Which value of IC50 has been reported for O=C(NCCCN1CCCC1)c1ccc(/C=C2\Sc3ccccc3N(Cc3ccccc3F)C2=O)cc1 [Compound 481] in the records?
> 20 µM

* * *

measured target: PKCdelta (Homo sapiens, UniProt Q05655)
Construct: purchased Reaction Biology Corp
Sequence (Q05655 whole entry): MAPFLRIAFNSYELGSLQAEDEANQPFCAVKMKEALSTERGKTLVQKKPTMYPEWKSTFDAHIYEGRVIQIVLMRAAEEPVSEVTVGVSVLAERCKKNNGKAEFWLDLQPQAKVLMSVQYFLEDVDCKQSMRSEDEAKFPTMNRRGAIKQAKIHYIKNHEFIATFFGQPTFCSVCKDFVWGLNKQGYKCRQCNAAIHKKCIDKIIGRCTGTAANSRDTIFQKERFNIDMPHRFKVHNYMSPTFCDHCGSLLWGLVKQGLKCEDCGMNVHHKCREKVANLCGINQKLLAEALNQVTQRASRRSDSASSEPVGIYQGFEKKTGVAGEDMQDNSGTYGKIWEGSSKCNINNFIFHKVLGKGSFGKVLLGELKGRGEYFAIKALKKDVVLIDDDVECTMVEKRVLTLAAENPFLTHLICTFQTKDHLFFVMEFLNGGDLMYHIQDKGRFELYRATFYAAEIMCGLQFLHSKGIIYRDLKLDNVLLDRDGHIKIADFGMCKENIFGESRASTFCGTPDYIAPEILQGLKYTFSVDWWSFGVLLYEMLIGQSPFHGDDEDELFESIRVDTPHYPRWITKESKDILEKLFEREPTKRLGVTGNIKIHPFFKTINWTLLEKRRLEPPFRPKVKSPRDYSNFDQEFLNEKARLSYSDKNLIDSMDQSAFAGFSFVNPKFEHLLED
protocol summary: Kinase profiling
Format: biochemical
pIC50: −log10 of the molar value.
recorded endpoint: pIC50

Which value of pIC50 has been reported for O=C(NCCCN1CCCC1)c1ccc(/C=C2\Sc3ccccc3N(Cc3ccccc3F)C2=O)cc1 [Compound 481] in the records?
< 4.70

* * *

measured target: PKCzeta (Homo sapiens, UniProt Q05513)
Construct: purchased Reaction Biology Corp
Sequence (Q05513 1-592): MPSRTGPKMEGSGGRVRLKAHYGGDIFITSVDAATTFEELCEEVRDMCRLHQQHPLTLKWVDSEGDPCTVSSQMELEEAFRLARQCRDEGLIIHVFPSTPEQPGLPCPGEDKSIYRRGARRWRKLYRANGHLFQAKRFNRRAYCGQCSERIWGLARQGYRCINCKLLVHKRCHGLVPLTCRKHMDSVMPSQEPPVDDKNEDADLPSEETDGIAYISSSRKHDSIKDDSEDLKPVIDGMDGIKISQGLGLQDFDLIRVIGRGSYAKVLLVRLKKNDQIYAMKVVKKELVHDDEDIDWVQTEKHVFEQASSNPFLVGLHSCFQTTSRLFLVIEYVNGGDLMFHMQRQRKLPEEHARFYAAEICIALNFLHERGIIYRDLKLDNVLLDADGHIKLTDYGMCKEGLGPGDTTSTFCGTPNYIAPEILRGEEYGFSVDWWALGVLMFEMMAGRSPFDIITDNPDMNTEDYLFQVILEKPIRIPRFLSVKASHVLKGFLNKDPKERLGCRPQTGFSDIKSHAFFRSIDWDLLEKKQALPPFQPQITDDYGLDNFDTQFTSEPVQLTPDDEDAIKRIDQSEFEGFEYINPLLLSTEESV
protocol summary: Kinase profiling
Type: biochemical
pIC50: −log10 of the molar value.
recorded endpoint: pIC50

Which value of pIC50 has been reported for O=C(NCCCN1CCCC1)c1ccc(/C=C2\Sc3ccccc3N(Cc3ccccc3F)C2=O)cc1 in the records?
< 4.70
